Numbers sourced from patent US20210347914A1.

Could you please report measured kon for the items listed next?
- target-system: T1, Polyhistidine-tagged recombinant human GFAP expressed from E. coli (human, UniProt P14136 1-432)
- T1 construct: also called His-tagged GFAP; not shown: polyhistidine tag
- T1 sequence (P14136 whole entry): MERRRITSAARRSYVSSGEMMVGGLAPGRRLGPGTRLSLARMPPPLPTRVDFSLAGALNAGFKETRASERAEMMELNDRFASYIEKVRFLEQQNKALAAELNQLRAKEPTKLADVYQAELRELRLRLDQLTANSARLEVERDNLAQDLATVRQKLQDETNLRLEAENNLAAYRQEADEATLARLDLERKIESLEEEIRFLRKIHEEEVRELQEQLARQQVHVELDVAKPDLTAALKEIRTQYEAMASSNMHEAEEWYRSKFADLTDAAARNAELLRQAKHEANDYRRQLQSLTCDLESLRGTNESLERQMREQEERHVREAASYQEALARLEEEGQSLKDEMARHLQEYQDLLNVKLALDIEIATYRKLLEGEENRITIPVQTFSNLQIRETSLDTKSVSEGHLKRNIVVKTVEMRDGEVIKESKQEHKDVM
- run-description: BLI (Octet QKe); His-tagged GFAP on anti-Penta-HIS sensor, antibody in solution

Give kon for all binders that follow.
1. GFAP-1 (antibody, V domains shown, also called mouse anti-GFAP antibody GFAP-1) VH: EVHLQQSGTVLARPGASVKMSCKASGYSFTSYWMHWVKQRPGQGLEWIGAFYPENSDTNYNQKFKGKARLTAVTSANTAYMELNSLTNEDSAVYYCTRPLLFSAYFDFWGQGTTLTVSS VL: DVLMTQTPLSLPVSLGDQASISCRSSQSIVHSYGNTYLEWYLQKPGLSPKLLIYKVSNRFSGVPDRFSGSGSGTDFTLTISRVEAEDLGVYYCFQGSHVPYTFGGGTKLEIK
2. GFAP-10 (antibody, V domains shown, also called mouse anti-GFAP antibody GFAP-10) VH: EVKLVESGGGLVKPGGSLKLSCAASGFTFSYYAMSWVRQTPEKRLEWVASISSGGTTYHPDSVKGRFTISRDNARNILYLQMSSLRSEDTAMYYCARGGHWYFDVWGAGTTVTVSS VL: QIVLTQSPAIMSASPGEKVTMTCSASSSVSYMHWYQQKSGTSPKRWIYDTSKLASGVPARFSGSGSGTSYSLTISSMEAEDAATYYCQQWSTNPLTFGAGTKLDLK
3. GFAP-14 (antibody, V domains shown, also called mouse anti-GFAP antibody GFAP-14) VH: DVQLVESGGGSVQPGGSRKLSCAASGFTFSSFGMHWVRQAPEKGLEWVAYISSDSNTVYYADTVKGRFTISRDNPKNTLFLQMTSLRSEDTAMYYCARYAMDYWGQGTSVTVSS VL: QIVLTQSPALMSASPGEKVTMTCSASSSVSYMYWYQQKPRSSPKPWIYLTSNLASGVPARFSGSGSGTSYSLTISSMEAEDAATYYCQQWSSNPPTFGAGTKLELK

Result:
162000 M⁻¹ s⁻¹
53300 M⁻¹ s⁻¹
299000 M⁻¹ s⁻¹
